target: recombinant human Myt1 (full length PKMYT1) (Homo sapiens (Human)); assay: Recombinant human Myt1 kinase assay (ADP-Glo); conditions: 10 μM ATP
Sequence (Q99640 whole entry): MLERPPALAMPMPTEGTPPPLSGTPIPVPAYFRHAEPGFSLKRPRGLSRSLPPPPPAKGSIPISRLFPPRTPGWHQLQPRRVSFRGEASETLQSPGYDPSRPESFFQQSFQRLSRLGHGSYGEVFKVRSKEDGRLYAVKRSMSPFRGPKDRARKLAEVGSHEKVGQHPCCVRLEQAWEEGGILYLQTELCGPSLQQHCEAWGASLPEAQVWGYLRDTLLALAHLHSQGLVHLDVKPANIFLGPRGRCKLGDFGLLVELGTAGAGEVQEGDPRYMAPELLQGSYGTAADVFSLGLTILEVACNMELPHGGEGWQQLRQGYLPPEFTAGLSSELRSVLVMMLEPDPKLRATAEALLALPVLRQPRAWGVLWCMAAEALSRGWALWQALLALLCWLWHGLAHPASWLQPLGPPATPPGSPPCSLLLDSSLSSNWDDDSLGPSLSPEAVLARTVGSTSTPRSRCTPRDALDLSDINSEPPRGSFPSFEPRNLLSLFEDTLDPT
MEASUREMENT_NAME: IC50 (nM)
Reply numerically in nM, unit not repeated.

>>> observed_measurement("Cc1ccc2[nH]ncc2c1-c1cc(-c2ccnc(N[C@@H]3c4ccccc4C[C@@H]3O)n2)nc(C(N)=O)c1N (atropisomer, axis not shown) [Compound 384]")
4
>>> observed_measurement("Cc1ccc(O)cc1-c1nc(-c2ccncc2)nc(C(N)=O)c1N [Compound 24]")
18
>>> observed_measurement("Cc1ccc2[nH]ncc2c1-c1cc(-c2cccc(OCCN3CCCC3)n2)nc(C(N)=O)c1N (atropisomer, axis not shown) [Compound 271]")
1090

Input: # return recorded IC50 for entry Cc1ccc2[nH]ncc2c1-c1cc(-c2cccc(OC[C@H]3CCCO3)n2)nc(C(N)=O)c1N (atropisomer, axis not shown) [Compound 388]
Output: 643

Input: # return recorded IC50 for entry Cc1ccc2[nH]ncc2c1-c1cc(-c2ccnc(N)c2)nc(C(N)=O)c1N [Compound 189]
Output: 21

Input: # return recorded IC50 for entry Cc1cc(F)c2[nH]ncc2c1-c1nc(-c2cn(C)nc2NC2CCOCC2)nc(C(N)=O)c1N [Compound 903]
Output: 4

Input: # return recorded IC50 for entry Cc1ccc2[nH]ncc2c1-c1nc(-c2cc(Cl)ncc2NC2CCOCC2)nc(C(N)=O)c1N [Compound 839]
Output: 4

Cited source for all entries: patent US20250304537A1
